Listing of recorded GI50 by entry.
system: COLO 205; assay: NCI tumour cell line growth inhibition, 48 h
The source made the active and inactive calls. Rule as the data show it: active = GI50 up to about 1.1 µM and inactive = higher.

Molecule	Assay Result
Oc1c(Br)cc(/C=C/c2cccc(/C=C/c3cc(Br)c(O)c(Br)c3)n2)cc1Br	14.6 µM (inactive)
COc1ccc2nc(-c3ccccc3)c(=O)[nH]c2c1	> 100 µM (inactive)
CCOC(=O)C(NC(=O)c1cccc(Cl)c1)(Nc1ccc(S(=O)(=O)Nc2cc(C)nc(C)n2)cc1)C(F)(F)F (stereo not given)	> 100 µM (inactive)
CC(=O)Oc1c2c(c(O)c3ccccc13)C(n1cnc3c(ncn3C3OC(CO)C4OC(C)(C)OC43)c1=N)CCC2 (stereo not given)	16.9 µM (inactive)

Next item in the queue.
Suppose we examine the molecule O=C1OC(C2=CC(=O)c3ccccc3C2=O)C(Cl)=C1Cl (stereo not given) ; what GI50 value has been reported?
35 µM (inactive)
